Quick reference for cytotoxicity at 10 µM among some molecules
# test-protocol: Toxicity liver stage against HepG2, at 10uM
# Type: cell-based
# Set-up: test concentration 10 uM, cell line HepG2-A16-CD81EGFP
# protocol-conditions: human, HepG2-A16-CD81EGFP cells; read-out: INHIBITION
readout: cytotoxicity at 10 µM (%)

1) Cc1ncsc1CCC(=O)N1CCCC[C@H](N(C)C)C1 :: -22.5
2) N#CCc1ccc(OCC(=O)NS(=O)(=O)c2cccs2)cc1 :: 13.6
3) CCOC(=O)C(C)Nc1ccc(CCN2CCOCC2)cc1 (configuration not stated) :: -2.2
4) NC(=O)CN1CCC(NC(=O)COCCOc2ccccc2)CC1 :: -9.46
5) Nc1ccnc(N2C[C@H]3CC[C@@H](C2)N(CC2CCC2)C3=O)n1 :: -0.253
6) CCn1cc(NC(=O)NCc2ccc3c(c2)OCO3)cn1 :: -1.1
7) Cc1ccc(C)c(S(=O)(=O)CCN2CCc3c(ncn3C)C2)c1 :: -12.5
8) CCOc1cc(C)nc(N2CCN(C(=O)c3cn[nH]c3CC)CC2)n1 :: -2
9) Cc1occc1C(=O)Nc1cc(N2CCNC2=O)ccc1Cl :: 8.56
10) COCCN1CC(=O)N2CC[C@@H](O)C[C@H]2C1=O :: -8.03
11) Cn1cc2ncn(CCC3CCN(Cc4ccccc4)C3)c(=O)c2n1 (configuration not stated) :: 1.28
12) O=C(CC1CCN(c2cccnn2)CC1)Nc1nncs1 :: 1.01
